Assay: chemical genetic growth profiling, strain panel (AID 1159580);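 also: tested at 20 µM; growth read once vehicle control cultures reached saturation at 30 °C; 1 = growth at the plate median or of vehicle wells; lower values mean less growth of the strain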
Conditions: S. cerevisiae deletion strains, growth OD, locus YLR085C, strain ARP6
In all, about 5,500 compounds went through this assay and about 2,000 (36%) were called active. Roughly 18% stayed inconclusive and do not appear here. Rule as the data show it: active = normalized growth mostly below about 0.91 (no sharp cut-off); inconclusive = no clear call, values can overlap the other calls; inactive = mostly above about 0.92. Some of the results follow.
The categories you may choose from are active, inactive

molecule: COC(=O)Cc1cc(OC)c(OC)cc1[N+](=O)[O-]
assigned_class: inactive

molecule: NNC(=O)c1cccnc1Oc1ccccc1
assigned_class: inactive

molecule: COc1cc([N+](=O)[O-])c(OC)cc1SCC(=O)NNC(=O)c1cc(OC)c(OC)c(OC)c1
assigned_class: inactive

Enquiry: Write down the call the test reported for this molecule. Item: Cc1ccc(SC(=O)c2cccnc2Oc2ccccc2)cc1
Return: inactive

Enquiry: Write down the call the test reported for this molecule. Item: Cc1ccc(Sc2nc(C)c([N+](=O)[O-])c(C)c2C#N)cc1
Return: inactive

---

Assay: chemical genetic growth profiling, strain panel (AID 1159580)
Conditions: S. cerevisiae deletion strains, growth OD, locus YGR229C, strain SMI1, active compounds read low
The whole screen tested about 5,500 compounds, of which about 2,000 (36%) were called active. Not shown: some 18% with an inconclusive outcome. Some of the results follow.
quantity_measured: normalized growth
No unit in the answer, please; the number alone is enough.

Use these answered entries as a reference point.
compound: NCCS(=O)O
measured_result: 1

compound: COc1ccc(-c2cc(=O)c3c(O)c(OC)c(OC)cc3o2)cc1O
measured_result: 0.893

compound: COc1cc([N+](=O)[O-])c(OC)cc1SCC(=O)NNC(=O)c1cc(OC)c(OC)c(OC)c1
measured_result: 1.01

compound: CCSc1ncccc1C(=O)N[C@@H](CCSC)C(=O)OC
measured_result: 1

compound: CO[C@H]1[C@H](O)[C@@H](O[C@H]2CC[C@]3(C=O)C4CC[C@]5(C)[C@@H](C6=CC(=O)OC6)CC[C@]5(O)C4CC[C@@H]3C2)O[C@@H](C)[C@@H]1O (stereo partly specified)
measured_result: 0.996

// below: normalized growth requested for another compound
Enquiry: Fill in the blank: the reported normalized growth of CCOC(=O)C1=C(O)C(=O)N(Cc2ccccc2)C1 is ____.
Return: 1

---

Experiment: chemical genetic growth profiling, strain panel (AID 1159580)
Settings: S. cerevisiae deletion strains, growth OD, locus YHR027C, strain rpn1, active compounds read low
Screen size: about 5,500 compounds; about 2,000 (36%) were called active. About 18% were inconclusive and are not listed. The list shows a part of the results.
quantity_measured: normalized growth
No unit in the answer, please; the number alone is enough.

compound: COC1=CC(=O)C=C(OC)C1=O
normalized growth: 0.995

Enquiry: Fill in the blank: the reported normalized growth of CC1(C)C(=O)CC[C@@]2(C)C1C[C@@H](O)[C@@]1(C)C3=CC(=O)O[C@@H](c4ccoc4)[C@]3(C)CCC21 (some centres undefined) is ____.
Return: 1.02

Enquiry: Fill in the blank: the reported normalized growth of CC(=O)O[C@@H]1CC2C(C)(CC[C@H](O)C2(C)C)C2CC[C@]3(C)C(=CC(=O)O[C@H]3c3ccoc3)C21C (some centres undefined) is ____.
Return: 1.02

Enquiry: Fill in the blank: the reported normalized growth of COC1=CC(C)[C@@H]2C[C@H]3OC(=O)C[C@H]4C(C)=C(OC)C(=O)C([C@@]34C)[C@@]2(C)C1=O (some centres undefined) is ____.
Return: 0.989

---

Experiment: chemical genetic growth profiling, strain panel (AID 1159580)
Conditions: S. cerevisiae deletion strains, growth OD, locus YCL029C, strain bik1, active compounds read low
The campaign covered roughly 5,500 compounds. About 2,000 (36%) were called active. Not shown: some 18% with an inconclusive outcome. The list shows a part of the results.
# if measured normalized growth < 1: fulfilled  # else: not fulfilled

molecule: COc1cc(C(=O)O)cc(OC)c1OC
assigned_class: not fulfilled
//
molecule: COc1cc(C(=O)N2CCOCC2)cc(OC)c1OC
assigned_class: fulfilled
//
molecule: CCC(=O)OCC(=O)[C@@]1(OC(=O)CC)[C@@H](C)CC2C3CCC4=CC(=O)C=C[C@]4(C)C3(F)[C@@H](O)C[C@@]21C (some centres not stated)
assigned_class: fulfilled

# next molecule below
Enquiry: Here's an entry: C[C@]12CCC3C(CC[C@]4(O)C[C@@H](O)CC[C@]34C=O)[C@@]1(O)CCC2C1=CC(=O)OC1 (some centres not stated) . Is its normalized growth below 1?
Return: fulfilled

---

# normalized growth values compiled below
Assay: chemical genetic growth profiling, strain panel (AID 1159580);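 also: tested at 20 µM; growth read once vehicle control cultures reached saturation at 30 °C; 1 = growth at the plate median or of vehicle wells; lower values mean less growth of the strain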
Conditions: S. cerevisiae deletion strains, growth OD, locus YER155C, strain BEM2 (second series), active compounds read low
The whole screen tested about 5,500 compounds, of which about 2,000 (36%) were called active. Inconclusive results (about 18%) are left out. The list shows a part of the results.
No unit in the answer, please; the number alone is enough.

Use these answered entries as a reference point.
compound: NCCCC(O)(P(=O)(O)O)P(=O)(O)O
normalized growth: 0.968

compound: C[N+]1(C)C[C@H](O)[C@H](C(=O)[O-])C1
normalized growth: 1.05

compound: COC1=CC(C)[C@@H]2C[C@H]3OC(=O)C[C@H]4C(C)=C(OC)C(=O)C([C@@]34C)[C@@]2(C)C1=O (some centres not stated)
normalized growth: 0.978

Enquiry: Fill in the blank: the reported normalized growth of COc1cc(C(=O)N2CCOCC2)cc(OC)c1OC is ____.
Return: 0.994

Enquiry: Fill in the blank: the reported normalized growth of NC(=O)c1cc([N+](=O)[O-])cc([N+](=O)[O-])c1 is ____.
Return: 0.788

Enquiry: Fill in the blank: the reported normalized growth of COC1=CC(=O)C=C(OC)C1=O is ____.
Return: 1.02

Enquiry: Fill in the blank: the reported normalized growth of CC1(C)S[C@@H]2[C@H](NC(=O)[C@@H](N)c3ccc(O)cc3)C(=O)N2[C@H]1C(=O)O is ____.
Return: 0.996

Enquiry: Fill in the blank: the reported normalized growth of Cc1c(C(N)=O)cc([N+](=O)[O-])cc1[N+](=O)[O-] is ____.
Return: 0.978

Enquiry: Fill in the blank: the reported normalized growth of CN[C@H]1CC[C@@H](c2ccc(Cl)c(Cl)c2)c2ccccc21 is ____.
Return: 1.01

---

Assay: chemical genetic growth profiling, strain panel (AID 1159580);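 also: tested at 20 µM; growth read once vehicle control cultures reached saturation at 30 °C; 1 = growth at the plate median or of vehicle wells; lower values mean less growth of the strain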
Conditions: S. cerevisiae deletion strains, growth OD, locus YHR142W, strain chs7
Out of some 5,500 compounds screened, about 2,000 (36%) were called active. Another 18% or so got no clear call; they are omitted. Cut-off read from the data, not from the text of the source: active = normalized growth mostly below about 0.91 (no sharp cut-off); inconclusive = no clear call, values can overlap the other calls; inactive = mostly above about 0.92. The list shows a part of the results.
The categories you may choose from are true (1) (active), false (0) (inactive)

Illustrative cases are given below, each with its answer.
molecule: COc1ccc(-c2cc(=O)c3c(OC)c(OC)c(OC)c(OC)c3o2)cc1OC
assigned_class: false (0)

molecule: COC1=CC(C)[C@@H]2C[C@H]3OC(=O)C[C@H]4C(C)=C(OC)C(=O)C([C@@]34C)[C@@]2(C)C1=O (stereo not given in full)
assigned_class: false (0)

molecule: COC1=CC(=O)C=C(OC)C1=O
assigned_class: false (0)

molecule: COc1cc(-c2cc(=O)c3c(O)c(OC)c(OC)c(OC)c3o2)cc(OC)c1OC
assigned_class: false (0)

molecule: COc1ccc(-c2cc(=O)c3c(O)cc(O)cc3o2)cc1
assigned_class: false (0)

molecule: CN[C@H]1CC[C@@H](c2ccc(Cl)c(Cl)c2)c2ccccc21
assigned_class: true (1)

Enquiry: Write down the call the test reported for this molecule. Item: O=C(O)CCc1nc(-c2ccccc2)c(-c2ccccc2)o1
Return: false (0)

Enquiry: Write down the call the test reported for this molecule. Item: COc1ccc(-c2cc(=O)c3c(O)c(OC)c(OC)c(OC)c3o2)cc1OC
Return: false (0)

Enquiry: Write down the call the test reported for this molecule. Item: COC1CC(O[C@H]2CC[C@]3(C=O)C4CC[C@]5(C)C(C6=CC(=O)OC6)CC[C@]5(O)C4CC[C@]3(O)C2)OC(C)C1O (stereo not given in full)
Return: false (0)

Enquiry: Write down the call the test reported for this molecule. Item: CC1CCCC(C)N1NC(=O)c1ccc(Cl)c(S(N)(=O)=O)c1 (stereo not given)
Return: false (0)

---

# normalized growth values compiled below
Assay: chemical genetic growth profiling, strain panel (AID 1159580);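 also: tested at 20 µM; growth read once vehicle control cultures reached saturation at 30 °C; 1 = growth at the plate median or of vehicle wells; lower values mean less growth of the strain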
Details: S. cerevisiae deletion strains, growth OD, locus YNL183C, strain NPR1, active compounds read low
The campaign covered roughly 5,500 compounds. About 2,000 (36%) were called active. About 18% were inconclusive and are not listed. The list shows a part of the results.

Use these answered entries as a reference point.
compound: Oc1ccc([C@H]2Oc3cc(O)cc(O)c3C[C@H]2O)cc1
measured_result: 0.956 (inactive)
//
compound: O=C(Nc1cc2ccccc2s1)N1CCN(Cc2c(F)cccc2Cl)CC1
measured_result: 0.944 (inactive)
//
compound: Cc1ncc(CO)c(CO)c1O
measured_result: 0.927 (inactive)
//
compound: O=c1c(-c2ccc(O)cc2)coc2c(C3O[C@H](CO)[C@@H](O)[C@H](O)[C@H]3O)c(O)ccc12 (stereo partly specified)
measured_result: 0.91 (inactive)

Enquiry: Fill in the blank: the reported normalized growth of O=C(Oc1ccccc1C(=O)O)c1ccccc1O is ____.
Return: 0.921 (inactive)

Enquiry: Fill in the blank: the reported normalized growth of COC1CC(O[C@H]2CC[C@]3(C=O)C4CC[C@]5(C)C(C6=CC(=O)OC6)CC[C@]5(O)C4CC[C@]3(O)C2)OC(C)C1O (stereo partly specified) is ____.
Return: 0.927 (inactive)

Enquiry: Fill in the blank: the reported normalized growth of CO[C@@H]1C[C@H](O[C@H]2CC[C@]3(C)C4CC[C@]5(C)[C@@H](C6=CC(=O)OC6)CC[C@]5(O)[C@@H]4CC[C@]3(O)C2)O[C@H](C)[C@@H]1O (stereo partly specified) is ____.
Return: 0.988 (inactive)

Enquiry: Fill in the blank: the reported normalized growth of O=C(Oc1cccc2cccnc12)c1ccccc1 is ____.
Return: 0.908 (inactive)

Enquiry: Fill in the blank: the reported normalized growth of COc1c(O)cc2c(c1O)[C@H]1O[C@H](CO)[C@@H](O)[C@H](O)[C@@H]1OC2=O is ____.
Return: 0.933 (inactive)

Enquiry: Fill in the blank: the reported normalized growth of NCCCCN is ____.
Return: 0.961 (inactive)

Enquiry: Fill in the blank: the reported normalized growth of CC(=O)Oc1ccccc1C(=O)Oc1ccccc1C(=O)O is ____.
Return: 0.921 (inactive)

Value source: PubChem BioAssay AID1159580
